From: patent US7622611B2

target or test system: human NHE-1 (Homo sapiens)
Sequence (P19634 whole entry): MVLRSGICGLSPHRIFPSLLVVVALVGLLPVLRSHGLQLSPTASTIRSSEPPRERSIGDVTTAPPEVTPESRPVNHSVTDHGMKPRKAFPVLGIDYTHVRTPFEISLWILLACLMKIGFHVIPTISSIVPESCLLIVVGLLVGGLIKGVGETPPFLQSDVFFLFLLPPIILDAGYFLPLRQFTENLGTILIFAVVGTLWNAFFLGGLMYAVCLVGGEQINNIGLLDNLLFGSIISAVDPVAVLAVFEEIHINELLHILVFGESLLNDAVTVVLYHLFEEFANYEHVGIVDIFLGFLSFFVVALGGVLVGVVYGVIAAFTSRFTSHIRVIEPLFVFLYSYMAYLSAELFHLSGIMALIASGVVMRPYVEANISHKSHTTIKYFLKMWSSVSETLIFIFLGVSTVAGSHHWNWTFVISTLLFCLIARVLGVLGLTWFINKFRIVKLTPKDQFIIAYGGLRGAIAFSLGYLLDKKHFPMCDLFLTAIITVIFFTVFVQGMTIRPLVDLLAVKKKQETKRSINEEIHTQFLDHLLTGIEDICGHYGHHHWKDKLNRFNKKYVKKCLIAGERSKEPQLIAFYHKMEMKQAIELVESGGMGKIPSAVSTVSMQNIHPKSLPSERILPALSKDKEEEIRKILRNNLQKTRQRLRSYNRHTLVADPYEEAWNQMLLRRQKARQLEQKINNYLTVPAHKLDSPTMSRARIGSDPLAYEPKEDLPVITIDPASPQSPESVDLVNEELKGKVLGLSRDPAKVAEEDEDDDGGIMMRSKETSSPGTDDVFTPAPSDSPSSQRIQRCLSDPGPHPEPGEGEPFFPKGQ
assay explanation: NHE-1 inhibition, FLIPR assay measuring pHi recovery in transfected cell lines
reported conditions: transfected LAP-1 cell line expressing human NHE-1, BCECF pHi recovery, read-out: NHE1 inhibition IC50
observable: IC50 (nM)
Number in nM, nothing else.

Ask | Provide only the value of recorded IC50 for Cc1cc(S(F)(F)(F)(F)F)c(S(C)(=O)=O)cc1C(=O)N=C(N)N [Example 1]
Reply | 49
